- Target Under Test: full length spike (S) protein of SARS-CoV-2 (SARS-CoV-2, UniProt P0DTC2 14-1273)
- Protocol: cell-based or functional assay
Parameter: IC80, Pesudovirus neutralization (µg/mL)
Give the number; µg/mL is assumed, so skip it.

Some binders with known IC80, Pesudovirus neutralization results, for comparison:
P5A-1B8 (antibody, human IgG1, kappa, V domains shown) VH: EVQLVESGGGLIQPGGSLRLSCAASGFTVSSNYMSWVRQAPGKGLEWVSVIYPGGSTFYADSVKGRFTISRDNSKNTLYLQMNSLRAEDTAVYYCARETLAFDYWGQGTLVTVSS VL: DIQLTQSPSFLSASVGDRVTITCRASQGISSYLAWYQQKPGKAPKLLIYAASTLQSGVPSRFSGSGSGTEFTLTISSLQPEDFATYYCQQLNSYPPAFGGGTKVEIKR; 0.0509
P5A-3A6 (antibody, human IgG1, lambda, V domains shown) VH: EVQLVESGGGLVQPGRSLRLSCAASGFTFDDYAMHWVRQAPGKGLEWVSGISWNSGTIGYADSVKGRFIISRDNAKNSLYLQMNSLRAEDTALYYCAGGGTMVRGVIAGGGTHPVDDYYGMDVWGQGTTVTVSS VL: QSALTQPASVSGSPGQSITISCTGTSSDVGGYNYVSWYQQHPGKAPKLMIYDVSNRPSGVSNRFSGSKSGNTASLTISGLQAEDEADYYCSSYTSSSTVVFGGGTKLTVLG; 1.27
P5A-2G9 (antibody, human IgG1, lambda, V domains shown) VH: QVQLVESGGGVVQPGRSLRLSCAASGFTFSSYGMHWVRQAPGKGLEWVAVIWYDGSNKYYADSVKGRFTISRDNSKNTLYLQMNSLRAEDTAVYYCARWFHTGGYFDYWGQGTLVTVSS VL: QPVLTQPPSSSASPGESARLTCTLPSDINVSSYNIYWYQQKPGSPPRYLLYYYSDSDKGQGSGVPSRFSGSKDASANTGILLISGLQSEDEADYYCMIWPSNALYVFGTGTKVTVLG; 0.147

IC80, Pesudovirus neutralization reading for P5A-1D10 (antibody, human IgG1, lambda, V domains shown) VH: QVQLVESGGGLVKPGGSLRLSCAASQFTFSDYSMTWIRQAPGKGLEWVSYISQSGSTIYYADSVKGRFTISRDNAKNSLYLQMNSLRAEDTAVYYCARGVSPSYVWGSYRSLYHFDYWGQGTLVTVSS VL: QSALTQPASVSGSPGQSITISCTGTSSDVGGYNYVSWYQQHPGKAPKLMIYDVSNRPSGVSNRFSASKSGNTASLTISGLQAEDEADYYCSSFTSSTTVVVFGGGTKLTVLG : 28.9

Taken from patent US20210292392A1.
